Every entry's value here was drawn from patent US20040072206A1.

Target: B. subtilis RNAP (Bacillus subtilis, UniProt P37870+P37871)
Construct: endogenous in cells; host or cells: Bacillus subtilis strain PL37 (built from strain 168)
Sequence (P37871 whole entry): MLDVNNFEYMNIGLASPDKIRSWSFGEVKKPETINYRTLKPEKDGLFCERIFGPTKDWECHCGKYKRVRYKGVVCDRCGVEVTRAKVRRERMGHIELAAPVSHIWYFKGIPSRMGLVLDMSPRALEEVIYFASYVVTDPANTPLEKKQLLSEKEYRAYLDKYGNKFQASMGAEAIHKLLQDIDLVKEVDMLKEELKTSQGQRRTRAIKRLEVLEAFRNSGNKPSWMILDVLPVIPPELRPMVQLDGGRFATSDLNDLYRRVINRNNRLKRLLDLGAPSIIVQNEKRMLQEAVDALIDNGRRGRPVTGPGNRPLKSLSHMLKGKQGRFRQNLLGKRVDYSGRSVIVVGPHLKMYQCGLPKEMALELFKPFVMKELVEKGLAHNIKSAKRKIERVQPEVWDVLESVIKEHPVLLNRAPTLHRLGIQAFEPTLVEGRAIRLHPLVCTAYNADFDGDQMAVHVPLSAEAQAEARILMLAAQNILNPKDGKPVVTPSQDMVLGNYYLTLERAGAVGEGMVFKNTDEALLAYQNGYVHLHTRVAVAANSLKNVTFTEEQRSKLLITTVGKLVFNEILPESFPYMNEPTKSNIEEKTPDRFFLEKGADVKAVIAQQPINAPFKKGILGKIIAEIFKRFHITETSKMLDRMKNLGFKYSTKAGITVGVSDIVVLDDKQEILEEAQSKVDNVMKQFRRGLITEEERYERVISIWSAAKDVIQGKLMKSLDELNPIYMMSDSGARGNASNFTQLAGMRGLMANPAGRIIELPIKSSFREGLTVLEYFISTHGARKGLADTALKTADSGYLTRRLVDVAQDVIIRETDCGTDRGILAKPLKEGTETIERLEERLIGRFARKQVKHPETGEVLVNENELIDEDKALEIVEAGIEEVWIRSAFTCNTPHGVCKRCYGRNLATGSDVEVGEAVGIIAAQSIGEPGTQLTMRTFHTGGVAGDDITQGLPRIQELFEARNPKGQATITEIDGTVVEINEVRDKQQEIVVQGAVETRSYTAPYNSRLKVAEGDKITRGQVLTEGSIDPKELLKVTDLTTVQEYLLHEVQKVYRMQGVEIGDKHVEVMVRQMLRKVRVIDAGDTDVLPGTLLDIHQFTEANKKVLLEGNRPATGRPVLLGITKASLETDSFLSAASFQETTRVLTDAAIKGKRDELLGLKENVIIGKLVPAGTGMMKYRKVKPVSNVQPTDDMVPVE
Sequence (P20429 whole entry, further chain): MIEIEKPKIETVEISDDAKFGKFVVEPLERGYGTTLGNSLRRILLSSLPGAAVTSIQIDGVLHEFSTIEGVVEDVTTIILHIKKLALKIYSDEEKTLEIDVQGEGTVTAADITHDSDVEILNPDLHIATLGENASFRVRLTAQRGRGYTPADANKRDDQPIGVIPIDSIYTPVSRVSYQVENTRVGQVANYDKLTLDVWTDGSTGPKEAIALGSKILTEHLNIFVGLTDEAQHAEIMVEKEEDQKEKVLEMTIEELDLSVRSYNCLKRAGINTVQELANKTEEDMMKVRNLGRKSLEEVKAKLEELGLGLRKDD
Sequence (O35011 whole entry, further chain): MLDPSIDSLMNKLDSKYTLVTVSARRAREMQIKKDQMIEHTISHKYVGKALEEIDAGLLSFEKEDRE
Sequence (P37870 whole entry): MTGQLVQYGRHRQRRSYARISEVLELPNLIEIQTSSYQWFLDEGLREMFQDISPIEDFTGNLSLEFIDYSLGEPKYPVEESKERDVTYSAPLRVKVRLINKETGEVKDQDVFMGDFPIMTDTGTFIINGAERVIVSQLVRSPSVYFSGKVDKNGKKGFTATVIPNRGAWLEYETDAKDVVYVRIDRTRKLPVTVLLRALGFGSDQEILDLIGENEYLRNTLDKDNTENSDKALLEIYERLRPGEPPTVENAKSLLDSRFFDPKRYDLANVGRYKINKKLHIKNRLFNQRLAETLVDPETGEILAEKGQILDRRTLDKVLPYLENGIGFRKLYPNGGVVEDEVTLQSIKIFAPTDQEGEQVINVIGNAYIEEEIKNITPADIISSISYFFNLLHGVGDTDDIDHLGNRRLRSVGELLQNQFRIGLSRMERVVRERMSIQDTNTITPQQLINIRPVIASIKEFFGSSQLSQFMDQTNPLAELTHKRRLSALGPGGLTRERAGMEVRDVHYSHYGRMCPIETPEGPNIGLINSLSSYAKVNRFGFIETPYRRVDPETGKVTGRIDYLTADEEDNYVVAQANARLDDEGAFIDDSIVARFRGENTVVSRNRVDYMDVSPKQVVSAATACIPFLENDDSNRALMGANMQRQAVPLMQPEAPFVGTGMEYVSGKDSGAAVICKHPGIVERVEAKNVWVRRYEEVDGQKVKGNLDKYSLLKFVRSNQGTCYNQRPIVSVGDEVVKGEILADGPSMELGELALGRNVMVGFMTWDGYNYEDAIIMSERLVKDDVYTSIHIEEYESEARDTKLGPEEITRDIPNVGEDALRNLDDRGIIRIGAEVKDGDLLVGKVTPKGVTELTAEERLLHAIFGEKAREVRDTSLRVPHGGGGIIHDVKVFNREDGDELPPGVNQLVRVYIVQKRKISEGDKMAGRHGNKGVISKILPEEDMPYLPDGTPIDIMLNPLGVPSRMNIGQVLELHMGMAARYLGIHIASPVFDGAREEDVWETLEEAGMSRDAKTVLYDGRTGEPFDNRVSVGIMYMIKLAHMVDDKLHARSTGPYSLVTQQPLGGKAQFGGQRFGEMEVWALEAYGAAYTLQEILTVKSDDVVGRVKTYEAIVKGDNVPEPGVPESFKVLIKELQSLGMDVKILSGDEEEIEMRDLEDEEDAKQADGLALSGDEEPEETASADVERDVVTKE
Experiment: Dual reporter assay in strain PL37: test reporter Pxyl-lacZ and ratio of control to test reporter (RES:MUG)
Assay type: cell-based
Conditions: strain PL37; Dilution Number 4; DMSO control […]
Collected Ratio of the control reporter (RES): test reporter (MUG) values appear next to each entry.
MEASURED ENDPOINT: Ratio of the control reporter (RES): test reporter (MUG)

| COMPOUND | VAL |
| --- | --- |
| CC1(C)S[C@@H]2[C@H](NC(=O)C(C(=O)O)c3ccccc3)C(=O)N2[C@H]1C(=O)O (stereo partly drawn) | 1.63 |
| CNC(=O)[C@@H](C)[C@H]1C(=O)/C(=C(O)/C=C/C(C)=C/[C@@H](C)[C@H]2O[C@@]3(C)O[C@H](C=C[C@@]34CO4)[C@@H]2C)C(=O)N1[C@@H]1CC[C@H](O)[C@H](C)O1 | 10.22 |
| CC1=C(C(=O)O)N2C(=O)[C@@H](NC(=O)[C@H](N)c3ccccc3)[C@H]2SC1 | 1.62 |
